Tested on: MDA-MB-231 cells
Assay: Vacuolation of MDA-MB-231 cells caused by inhibition of compounds on PIKfyve (microscopy); note: key: '+' represents the degree of vacuolation; ++: more '+' indicates more obvious vacuolation; +++: more '+' indicates more obvious vacuolation; ++++: more '+' indicates more obvious vacuolation; '−' represents no vacuolation
Format: cell-based
Conditions: MDA-MB-231 cells, 1 μM, 48 h

>  <molecule>
Cc1ccc(C(=O)Nc2cccc(C(F)(F)F)c2)cc1Nc1cc(-c2cccnc2)nc2[nH]ccc12 [I-a-20]

>  <degree of vacuolation, 1 μM, 48 h>
+++

$$$$
>  <molecule>
Cc1ccc(C(=O)Nc2cccc(NS(C)(=O)=O)c2)cc1Nc1nc(-c2cccnc2)c2[nH]ccc2n1 [V-c-6]

>  <degree of vacuolation, 1 μM, 48 h>
++

$$$$
>  <molecule>
Cc1ccc(NC(=O)c2cccc(C(F)(F)F)c2)cc1Nc1nc(-c2cccnc2)c2[nH]ccc2n1 [V-c-19]

>  <degree of vacuolation, 1 μM, 48 h>
+++

$$$$
>  <molecule>
O=C(Nc1cccc(Nc2nc(-c3cccnc3)c3[nH]ccc3n2)c1)c1cccc(C(F)(F)F)c1 [V-c-18]

>  <degree of vacuolation, 1 μM, 48 h>
+++

$$$$
>  <molecule>
Cc1ccc(NC(=O)c2cccc(C(F)(F)F)c2)cc1Nc1cc(-c2ccncc2)nc2[nH]ccc12 [I-a-10]

>  <degree of vacuolation, 1 μM, 48 h>
−

$$$$
>  <molecule>
Cc1ccc(NC(=O)c2cccc(C(F)(F)F)c2)cc1Nc1nc(-c2cccnc2)nc2[nH]ccc12 [II-a-1]

>  <degree of vacuolation, 1 μM, 48 h>
+

$$$$
>  <molecule>
COc1ccc(Br)cc1NC(=S)Nc1cccc(-c2nc(NCc3cccnc3)c3c(ccn3C)n2)c1 [V-b-30]

>  <degree of vacuolation, 1 μM, 48 h>
−

$$$$
>  <molecule>
Cc1ccc(NC(=O)c2cccc(C(F)(F)F)c2)cc1Nc1nc(-c2ccncc2)nc2cc[nH]c12 [V-a-4]

>  <degree of vacuolation, 1 μM, 48 h>
−

$$$$
>  <molecule>
O=C(Nc1cccc(C(F)(F)F)c1)c1cccc(Nc2nc(-c3cccnc3)c3[nH]ccc3n2)c1 [V-c-4]

>  <degree of vacuolation, 1 μM, 48 h>
++

$$$$
>  <molecule>
Cc1ccc(C(=O)Nc2cccc(C(F)(F)F)c2)cc1Nc1nc(-c2ccccc2)nc2c1cnn2C [III-b-2]

>  <degree of vacuolation, 1 μM, 48 h>
−

$$$$
>  <molecule>
O=C(Nc1cccc(C(F)(F)F)c1)c1cccc(Nc2nc(-c3cccnc3)nc3cc[nH]c23)c1 [V-a-1]

>  <degree of vacuolation, 1 μM, 48 h>
−

$$$$
>  <molecule>
Cc1ccc(C(=O)Nc2cccc(OC(F)(F)F)c2)cc1Nc1nc(-c2cccnc2)c2[nH]ccc2n1 [V-c-8]

>  <degree of vacuolation, 1 μM, 48 h>
+++

$$$$
>  <molecule>
Cc1ccc(C(=O)Nc2ccc(CN3CCN(C)CC3)c(C(F)(F)F)c2)cc1Nc1cc(-c2ccncc2)nc2[nH]ccc12 [I-a-25]

>  <degree of vacuolation, 1 μM, 48 h>
+

$$$$
>  <molecule>
Cc1ccc(C(=O)Nc2cccc(OC(F)(F)F)c2)cc1Nc1nc(-c2cccnc2)nc2c1ncn2C [IV-b-11]

>  <degree of vacuolation, 1 μM, 48 h>
+

$$$$
>  <molecule>
Cc1ccc(C(=O)Nc2cccc(OC(F)(F)F)c2)cc1Nc1nc(-c2cccnc2)cn2c(Br)cnc12 [VI-b-4]

>  <degree of vacuolation, 1 μM, 48 h>
−

$$$$
>  <molecule>
Cc1ccc(NC(=O)c2cccc(C(F)(F)F)c2)cc1Nc1cc(-c2ccncc2)nc2sccc12 [VIII-a-4]

>  <degree of vacuolation, 1 μM, 48 h>
+

$$$$
>  <molecule>
Cc1ccc(NC(=O)c2cccc(C(F)(F)F)c2)cc1Nc1nc(-c2cccnc2)nc2c1ncn2C [IV-b-7]

>  <degree of vacuolation, 1 μM, 48 h>
+

$$$$
>  <molecule>
Cc1cc(NC(=O)c2ccc(C)c(Nc3cc(-c4cccnc4)nc4[nH]ccc34)c2)n(C)n1 [I-a-45]

>  <degree of vacuolation, 1 μM, 48 h>
+

$$$$
>  <molecule>
Cc1ccc(NC(=O)c2ccc(CN3CCOCC3)c(C(F)(F)F)c2)cc1Nc1nc(-c2cccnc2)cn2c(Br)cnc12 [VI-b-6]

>  <degree of vacuolation, 1 μM, 48 h>
−

$$$$
>  <molecule>
CN1CCN(Cc2cc(NC(=O)c3cccc(Nc4cc(-c5ccncc5)nc5[nH]ccc45)c3)cc(C(F)(F)F)c2)CC1 [I-a-27]

>  <degree of vacuolation, 1 μM, 48 h>
−

$$$$
>  <molecule>
O=C(Nc1cccc(Nc2cc(-c3ccncc3)nc3sccc23)c1)c1cccc(C(F)(F)F)c1 [VIII-a-2]

>  <degree of vacuolation, 1 μM, 48 h>
++

$$$$
>  <molecule>
Cc1ccc(C(=O)Nc2cccc(C(F)(F)F)c2)cc1Nc1nc(-c2cccnc2)nc2c1cnn2C [III-b-1]

>  <degree of vacuolation, 1 μM, 48 h>
++

$$$$
>  <molecule>
O=C(Nc1cccc(Nc2cc(-c3cccnc3)nc3sccc23)c1)c1cccc(C(F)(F)F)c1 [VIII-a-1]

>  <degree of vacuolation, 1 μM, 48 h>
++

$$$$
>  <molecule>
Cc1ccc(NC(=O)c2cccc(C(F)(F)F)c2)cc1Nc1cc(-c2cccnc2)c2cc[nH]c2n1 [I-c-12]

>  <degree of vacuolation, 1 μM, 48 h>
+++

$$$$
>  <molecule>
Cc1ccc(C(=O)Nc2cccc(C(F)(F)F)c2)cc1Nc1cc(-c2cccnc2)nc2c1ccn2C [I-b-3]

>  <degree of vacuolation, 1 μM, 48 h>
+

$$$$
>  <molecule>
Cc1ccc(C(=O)Nc2ccc(CN3CCN(C)CC3)c(C(F)(F)F)c2)cc1Nc1cc(-c2cccnc2)nc2[nH]ccc12 [I-a-24]

>  <degree of vacuolation, 1 μM, 48 h>
−

$$$$
>  <molecule>
Cc1ccc(C(=O)Nc2ccc(CN3CCN(C)CC3)c(C(F)(F)F)c2)cc1Nc1cc(-c2cccnc2)nc2c1ccn2C [I-b-5]

>  <degree of vacuolation, 1 μM, 48 h>
−

$$$$
>  <molecule>
Cc1ccc(NC(=O)c2cccc(C(F)(F)F)c2)cc1Nc1nc(-c2cccnc2)nc2cc[nH]c12 [V-a-3]

>  <degree of vacuolation, 1 μM, 48 h>
++

$$$$
>  <molecule>
Cc1ccc(NC(=O)c2cccc(C(F)(F)F)c2)cc1Nc1cc(-c2ccncc2)c2cc[nH]c2n1 [I-c-11]

>  <degree of vacuolation, 1 μM, 48 h>
++

$$$$
>  <molecule>
Cc1ccc(C(=O)Nc2cccc(OC(F)(F)F)c2)cc1Nc1nc(-c2ccncc2)nc2[nH]cnc12 [IV-a-7]

>  <degree of vacuolation, 1 μM, 48 h>
−

$$$$
>  <molecule>
CN1CCN(Cc2cc(NC(=O)c3cccc(Nc4cc(-c5cccnc5)nc5[nH]ccc45)c3)cc(C(F)(F)F)c2)CC1 [I-a-26]

>  <degree of vacuolation, 1 μM, 48 h>
−

$$$$
